Source of measurements: PubChem BioAssay AID1418

system name: Induced myeloid leukemia cell differentiation protein Mcl-1 (Homo sapiens) (UniProt Q07820)
Sequence (Q07820 whole entry, looked up): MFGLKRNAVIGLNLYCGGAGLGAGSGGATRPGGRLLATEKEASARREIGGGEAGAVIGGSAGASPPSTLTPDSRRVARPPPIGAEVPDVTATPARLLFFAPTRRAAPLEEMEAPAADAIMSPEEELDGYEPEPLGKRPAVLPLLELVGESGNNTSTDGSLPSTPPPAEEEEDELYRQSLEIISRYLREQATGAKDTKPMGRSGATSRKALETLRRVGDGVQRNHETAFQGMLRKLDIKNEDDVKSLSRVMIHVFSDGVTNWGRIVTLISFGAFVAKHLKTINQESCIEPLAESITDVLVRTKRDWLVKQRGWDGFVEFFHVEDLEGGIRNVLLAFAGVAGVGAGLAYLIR
method notes: blockers of Bid binding to Mcl-1 – biochemical, TR-FRET, dose response (AID 1418)
condition summary: Mcl-1/Bid peptide binding, TR-FRET (europium/Dy647), 2 hr
Calls of active or inactive are those of the source. No rule for the calls is given here.
Your reply should match one of these outcome classes. t (active), f (inactive)

Prompt: Hi, do you know how O=C(CN1C(=O)/C(=C2\SC(=S)N(C3CCS(=O)(=O)C3)C2=O)c2ccccc21)Nc1ccccc1 (stereo not given) came out in this test?
Response: t

Prompt: Field: outcome | Entry: CC1(C)Cc2cccc(OCC(=O)OCC(=O)Nc3cccc(S(N)(=O)=O)c3)c2O1
Response: f

Prompt: For CCC(C)[C@H](NC(=O)Nc1ccccc1F)C(=O)O (stereo not given in full) , which call appears in the assay record?
Response: f

Prompt: Which outcome did this test record for the compound COc1cccc(/C=N/NC(=O)c2cc3cc([N+](=O)[O-])ccc3s2)c1O ?
Response: t
